System: C2A
assay-info: qHTS profiling for inhibitors of Plasmodium falciparum proliferation (AID 504749); further: nearly all actives have a fitted effect of over 60% in size
applied-conditions: P. falciparum in erythrocytes, SYBR Green DNA, 72 h; series mostly up to 28.7 µM
Inconclusive results are not listed. Active and inactive are the calls of the source. The call rests on the fitted dose curve; in most records, active means well fitted inhibition curve with a large enough effect; inconclusive means small, poorly fitted or top-dose-only effect; inactive means flat fitted curve, though single readings scatter.
Outcome (select one): active, inactive

Qu. What did the test return for O=C(OC1C[C@H]2CC[C@@H](C1)[N+]21CCCC1)C(O)(c1ccccc1)c1ccccc1 (stereo not given in full) ?
Ans. active

Qu. # lookup: test call for O=C(CS(=O)Cc1ccco1)NCC=CCOc1cc(CN2CCCCC2)ccn1 (stereo not given)
Ans. inactive

Qu. Kindly provide the recorded test outcome for the following molecule: O=C(O)c1cn(-c2ccc(F)cc2)c2cc(N3CCNCC3)c(F)cc2c1=O
Ans. inactive

Qu. Hello, I am checking results. What call was entered for CCc1nc(N)nc(N)c1-c1ccc(Cl)cc1 ?
Ans. inactive

Qu. Assay result, entry C=CCc1cc(OC)c(O)c(C(=O)NCCO)c1 — outcome?
Ans. inactive

Qu. Which outcome was entered for the molecule CCOC(=O)c1c(C)n(C)c2ccc(O)cc12 in this test?
Ans. inactive

Qu. Called result for COc1cc2c(cc1OC)C1CC(=O)C(CC(C)C)CN1CC2 (stereo not given)
Ans. inactive

Qu. Given CC[C@]1(O)C[C@H]2CN(CCc3c([nH]c4ccccc34)[C@@](C(=O)OC)(c3cc4c(cc3OC)N(C=O)[C@H]3[C@@](O)(C(=O)OC)[C@H](OC(C)=O)[C@]5(CC)C=CCN6CC[C@]43[C@@H]65)C2)C1 , state the outcome it received in this test.
Ans. active

Qu. So what was the verdict on CCC(C)(Oc1ccc(C2(c3ccc(OC(C)(CC)C(=O)O)cc3)CCCCC2)cc1)C(=O)O (stereo not given) in this test?
Ans. inactive

Qu. Please let me know the test result on file for CCCOc1ccc2nc(NC(=O)OC)[nH]c2c1 .
Ans. inactive

* * *

assay-info: qHTS Assay for Lipid Storage Modulators (AID 1519); further: on the % scale 0 is the no-effect control and ±100 the full control effect
applied-conditions: Drosophila S3 cells, BODIPY lipid droplet/cell ratio, laser cytometry; at 25.7 µM (top of the series); cells loaded with oleic acid
Inconclusive results are not listed.
result-type: activity change, negative = inhibition (%)
Entry rule: numbers only, all in %.

Measured activity change, negative = inhibition, N=C(N=C(N)N)N1CCOCC1 : -1.12

Value of activity change, negative = inhibition reported for the molecule Oc1ccc(OCc2ccccc2)cc1 is -0.0547

Entry NC(=NCc1ccccc1)NC(=O)c1nc(Cl)c(N)nc1N , activity change, negative = inhibition reported as 0.817

The molecule listed as NS(=O)(=O)c1cc(C(=O)O)c(NCc2ccco2)cc1Cl shows activity change, negative = inhibition equal to 1.95

Lookup result for CCCc1cc(=O)[nH]c(=S)[nH]1 ; measured activity change, negative = inhibition: 0.162

Reported activity change, negative = inhibition ( Cc1cc2cc3c(C)cc(=O)oc3c(C)c2o1 ) = -0.305

The measured activity change, negative = inhibition associated with CCCCc1ccc2nc(NC(=O)OC)[nH]c2c1 reads 1.84

Lab note: measured activity change, negative = inhibition of Nc1cc(C(Cl)=C(Cl)Cl)c(S(N)(=O)=O)cc1S(N)(=O)=O was -3.67

Record summary for CCN(CC)C(=S)SSC(=S)N(CC)CC : reported activity change, negative = inhibition = -3.33

According to the records, this molecule CCc1nc(N)nc(N)c1-c1ccc(Cl)cc1 displays activity change, negative = inhibition of -2.49

Memo: Cc1cc(=O)oc2cc(O)ccc12 , reported activity change, negative = inhibition: 0.949

The molecule listed as CC(=O)Nc1ccc(O)cc1 shows activity change, negative = inhibition equal to -2.03

* * *

System: Zika virus NS2B-NS3 protease (unlinked)
assay-info: Optimization of GU AMC qHTS for Zika virus inhibitors: Unlinked NS2B-NS3 protease assay (AID 1347151); further: nearly all actives have a fitted effect of over 80% in size
applied-conditions: recombinant ZIKV NS2B-NS3 protease, fluorogenic AMC substrate; series mostly up to 52.5 µM
Records with an inconclusive call do not appear. Active and inactive are the calls of the source. Calls follow the shape of the dose curve; as a rule, active = well fitted inhibition curve with a large enough effect; inconclusive = small, poorly fitted or top-dose-only effect; inactive = no such curve, though single readings can be large or run the other way.
The reply should be one of these categories: Yes for active, No for inactive

Qu. Query: recorded result category for O=C1c2c(O)cc(O)cc2OC(c2ccc(O)c(O)c2)C1O (stereo not given) in this test
Ans. No

Qu. What outcome does the record of this test show for O=C1c2ccccc2-c2n[nH]c3cccc1c23 ?
Ans. Yes

Qu. Each molecule tested received a call. Report the one for Cc1cccc(C#Cc2ccccc2)n1 .
Ans. No

Qu. Please share the test call associated with CC(=O)NC[C@H]1CN(c2ccc(N3CCOCC3)c(F)c2)C(=O)O1 .
Ans. No

Qu. In this assay, the call recorded for CC(C)c1ccc2c(c1)c(SC(C)(C)C)c(CC(C)(C)C(=O)O)n2Cc1ccc(Cl)cc1 was what?
Ans. Yes

Qu. Entry CN(C)CCCC1(c2ccc(F)cc2)OCc2cc(C#N)ccc21 (stereo not given) : call = ?
Ans. No

Qu. Which outcome was assigned to COc1ccc2cc([C@H](C)C(=O)O)ccc2c1 in this test?
Ans. Yes

Qu. Hi, do you know how S=c1nc[nH]c2nc[nH]c12 came out in this test?
Ans. No

Qu. Tell me the recorded outcome of this test for Cc1cccc(-c2[nH]ncc2-c2ccc3ncccc3n2)n1 .
Ans. No

Qu. Test call, this molecule: Cc1cc(O)c2c(c1)C(=O)c1cc(O)cc(O)c1C2=O
Ans. Yes

Qu. Please state the recorded outcome for this molecule: O=c1cc(N2CCOCC2)oc2c(-c3ccccc3)cccc12
Ans. Yes

Qu. Field: outcome | Entry: O=C(O)c1cccnc1Nc1cccc(C(F)(F)F)c1
Ans. No

Qu. In this assay, the call recorded for O=c1c(O)c(-c2ccc(O)cc2O)oc2cc(O)cc(O)c12 was what?
Ans. Yes

Qu. Check the results log: what was the call for Cc1cc(Cl)ccc1OCCCC(=O)NO ?
Ans. No

Qu. Recorded call for CCOC(=O)C(C)Oc1cccc2c(=O)n(CC(=O)Nc3ccc4c(c3)OCCO4)ccc12 (stereo not given) ?
Ans. Yes

Qu. Just curious, what result did Oc1ccc2ccccc2c1SSc1c(O)ccc2ccccc12 get here?
Ans. Yes

Qu. Per the records of this test, what outcome belongs to Nc1nc(N)c(N=O)c(OCC2CCCCC2)n1 ?
Ans. No

Qu. Kindly provide the recorded test outcome for the following molecule: Clc1ccc2c(N3CCN(CCCN4CCN(c5ccnc6cc(Cl)ccc56)CC4)CC3)ccnc2c1
Ans. No

Qu. I'd appreciate the recorded outcome for C[C@@H](c1ncncc1F)[C@](O)(Cn1cncn1)c1ccc(F)cc1F from this test.
Ans. No

Qu. Dear colleague, could you share the recorded outcome for CC(=O)N1CCN(c2ccc(OC[C@H]3CO[C@](Cn4ccnc4)(c4ccc(Cl)cc4Cl)O3)cc2)CC1 when you have a moment?
Ans. No

Qu. Dear colleague, could you share the recorded outcome for NCCCCNCCCN when you have a moment?
Ans. No

Qu. Entry C[C@@H](N)C1CCC(C(=O)Nc2ccncc2)CC1 (stereo not given in full) : call = ?
Ans. No

Qu. Hi, do you know how CC(C)C[C@H](NC(=O)[C@H](Cc1ccccc1)NC(=O)c1cnccn1)B(O)O came out in this test?
Ans. No

Qu. Could you please tell me the result logged for NNc1nncc2ccccc12 in this assay?
Ans. No

Qu. Hi, sorry to bother you, what did the test record for O=c1ccc2ccc(O)c(O)c2o1 ?
Ans. No

Qu. Look up the recorded call for CCN(CC)C(=S)SSC(=S)N(CC)CC in this test.
Ans. No

Qu. For Nc1nc(OCc2ccccc2)c2[nH]cnc2n1 , which call appears in the assay record?
Ans. No

Qu. Outcome logged for O=C1NC(=O)C(c2ccccc2[N+](=O)[O-])=C1Nc1ccc(O)c(Cl)c1 in this assay:
Ans. No

Qu. Returns: the outcome recorded for CC1(C)C(=O)N(CCN2CCC(C(=O)c3ccc(F)cc3)CC2)c2ccccc21 in this assay.
Ans. No

Qu. Tell me the assay call for Cc1nc(Nc2ncc(C(=O)Nc3c(C)cccc3Cl)s2)cc(N2CCN(CCO)CC2)n1 please.
Ans. Yes

* * *

Assignment: determine reported activity change, negative = inhibition for the given compounds.
assay-info: NFAT Signaling Pathway (AID 444);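 further: carbachol stimulus at about its EC50 of 1 µM final; on the % scale 0 is the no-effect control and ±100 the full control effect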
applied-conditions: Jurkat NFAT-bla M1, carbachol, beta-lactamase ratio, 5 h; at 38 µM (top of the series)
Inconclusive results are not listed.
Numeric answer only, unit % assumed.

# activity change, negative = inhibition of NCCCCNCCCN = -4.2

The measured activity change, negative = inhibition associated with O=c1c(O)c(-c2ccc(O)cc2O)oc2cc(O)cc(O)c12 reads 2.93

Please fill in: activity change, negative = inhibition reported for O=c1c(O)c(-c2cc(O)c(O)c(O)c2)oc2cc(O)cc(O)c12 = 11.8

Memo: Cc1cc(O)c2c(c1)C(=O)c1cc(O)cc(O)c1C2=O , reported activity change, negative = inhibition: 7.8

get_value(item= COc1ccc2cc([C@H](C)C(=O)O)ccc2c1 , readout=activity change, negative = inhibition) returns 0.0959

The compound identified as O=C(O)c1cccnc1Nc1cccc(C(F)(F)F)c1 registered its activity change, negative = inhibition at 5.69

O=c1cc(N2CCOCC2)oc2c(-c3ccccc3)cccc12 has a reported activity change, negative = inhibition of -14.3

Input CC1(C)NC(=O)N(c2ccc([N+](=O)[O-])c(C(F)(F)F)c2)C1=O . Output activity change, negative = inhibition: 1.13

Memo: NC(=NCc1ccccc1)NC(=O)c1nc(Cl)c(N)nc1N , reported activity change, negative = inhibition: -27.8

// O=C1c2ccccc2-c2n[nH]c3cccc1c23 : activity change, negative = inhibition value = 6.14
